# Enterobacter cloacae: Minimum inhibitory concentration, Ec FADDI-EC001 values follow
Positions of bridges follow the written chain, without caps; N, C: chain ends. Non-standard residues stand in square brackets, D forms with d. Residues, ends and D or L forms follow the SMILES beside them. *: point of attachment. X36 = O=C(c1cc(C(F)(F)F)cc(C(F)(F)F)c1)*; dNva = CCC[C@@H](N)C(=O)O; Octanoyl = CCCCCCCC(=O)*; Dab = NCC[C@H](N)C(=O)O; Abu = CC[C@H](N)C(=O)O; Dap = NC[C@H](N)C(=O)O
The reply should contain only the number, in µg/mL.

Q) Give the measured Minimum inhibitory concentration, Ec FADDI-EC001 for CC[C@@H]1NC(=O)[C@@H](CC(C)C)NC(=O)[C@H](CCN)NC(=O)[C@@H](NC(=O)[C@H](CN)NC(=O)[C@@H](NC(=O)[C@H](CCN)NC(=O)c2cc(C(F)(F)F)cc(C(F)(F)F)c2)[C@@H](C)O)CCNC(=O)[C@H]([C@@H](C)O)NC(=O)[C@H](CCN)NC(=O)[C@H](CCN)NC1=O [Compound 97] (X36-[Dab]T[Dap][Dab][Dab][dL][Abu][Dab][Dab]T; lactam 4-C)
A) 0.5

Q) Give the measured Minimum inhibitory concentration, Ec FADDI-EC001 for CCCCCCCC(=O)N[C@@H](CCN)C(=O)N[C@H](C(=O)N[C@@H](CN)C(=O)N[C@H]1CCNC(=O)[C@H]([C@@H](C)O)NC(=O)[C@H](CCN)NC(=O)[C@H](CCN)NC(=O)[C@H]([C@@H](C)O)NC(=O)[C@@H](CCC)NC(=O)[C@H](CCN)NC1=O)[C@@H](C)O [Compound 49] (Octanoyl-[Dab]T[Dap][Dab][Dab][dNva]T[Dab][Dab]T; lactam 4-C)
A) 0.5
